FYI, the data here is from patent US20040267001A1.

# System: Arthrobacter sp. BP2 chnB monooxygenase
# test.description: chnB monooxygenase activity assay, NADPH oxidation at 340 nm, purified over-expressed enzyme
# Format: biochemical
# condition.context: 1.25 mM substrate, pH 7.5; ND = No Activity Detected
# binarize Specific Activity of Monooxygenase Enzymes Against Various Ketone Substrates, sp. BP2 chnB: threshold 0.2 µmol/min/mg inclusive, high side true (1), low side false (0)

# compound, assay.target, class
measured = [
    ("CC(=O)/C=C/C1=C(C)CCCC1(C)C [beta-ionone]", "Arthrobacter sp. BP2 chnB monooxygenase", "true (1)"),
    ("O=C1CC2CC[C@H]1C2 [Norcamphor]", "Arthrobacter sp. BP2 chnB monooxygenase", "true (1)"),
    ("OB(O)c1ccccc1 [Phenylboronic acid]", "Arthrobacter sp. BP2 chnB monooxygenase", "false (0)"),
    ("O=C1CCCC1 [Cyclopentanone]", "Arthrobacter sp. BP2 chnB monooxygenase", "true (1)"),
    ("O=C1CCCCCCCCCCCCCC1 [Cyclopenta-decanone]", "Arthrobacter sp. BP2 chnB monooxygenase", "false (0)"),
]
